Reported pIC50 values for the following substances.
Target: human FAP (Homo sapiens)
Construct: the biotinylated His, Avi tag, human FAP (26-760, FAP-H82Q6); His; Avi tag (biotinylated); purchased AcroBiosystems FAP-H82Q6
Sequence (Q12884 26-760): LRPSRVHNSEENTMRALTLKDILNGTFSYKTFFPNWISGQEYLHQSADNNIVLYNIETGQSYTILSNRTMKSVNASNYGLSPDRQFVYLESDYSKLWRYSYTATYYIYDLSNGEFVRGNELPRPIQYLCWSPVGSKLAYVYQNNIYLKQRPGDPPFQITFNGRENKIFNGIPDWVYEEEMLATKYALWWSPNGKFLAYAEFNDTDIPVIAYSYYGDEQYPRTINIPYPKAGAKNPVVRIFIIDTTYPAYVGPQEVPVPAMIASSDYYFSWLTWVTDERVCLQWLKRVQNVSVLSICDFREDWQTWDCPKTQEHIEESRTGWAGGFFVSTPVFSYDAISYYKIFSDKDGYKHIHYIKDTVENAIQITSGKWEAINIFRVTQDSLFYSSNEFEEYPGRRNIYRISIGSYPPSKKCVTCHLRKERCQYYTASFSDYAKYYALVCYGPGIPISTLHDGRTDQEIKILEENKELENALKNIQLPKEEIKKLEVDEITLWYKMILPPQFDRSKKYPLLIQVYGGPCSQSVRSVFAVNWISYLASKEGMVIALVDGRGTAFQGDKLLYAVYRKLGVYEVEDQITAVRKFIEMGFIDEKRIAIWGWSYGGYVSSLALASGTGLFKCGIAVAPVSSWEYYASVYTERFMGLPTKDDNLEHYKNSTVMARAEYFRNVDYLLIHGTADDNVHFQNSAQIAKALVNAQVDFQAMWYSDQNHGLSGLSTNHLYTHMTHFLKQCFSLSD
Test: Enzymatic FAP competition assay (Z-Gly-Pro-AMC fluorescence), human FAP
Type: biochemical
Settings: read-out: h. FAP, Enz., IC50
Procedure: Peptide potencies (IC50) to inhibit the FAP enzymatic activity were determined using a fluorescence-based assay towards the biotinylated His, Avi tag, human FAP (26-760, FAP-H82Q6) and the biotinylated His, Avi tag, mouse FAP (26-761, FAP-M82Q5). […] Samples were then incubated at 22-24° C. for 4 h before reading the fluorescence at excitation wavelength of 380 nm and emission wavelength of 460 nm using the Tecan Infinite® M1000 PRO. […]
Starred links: 1 amine or outer side, 2 acyl side, 3 side chain; linkers in the order of their positions; H or OH if unused. Non-standard residues stand in square brackets, D forms with d. Primed or numbered codes have the meaning given here. *: point of attachment. F4(amMeBAlaDOTALu) = lutetium complex of (S)-2,2',2''-(10-(2-((3-((4-(2-amino-2-carboxyethyl)benzyl)amino)-3-oxopropyl)(methyl)amino)-2-oxoethyl)-1,4,7,10-tetraazacyclododecane-1,4,7-triyl)triacetic acid (Phe with 4-aminomethyl-N-methyl-βAla, CN(CCC(=O)NCc1ccc(C[C@H](N[*:1])C(=O)[*:2])cc1)C(=O)CN1CCN(CC(=O)[O-])CCN(CC(=O)[O-])CCN(CC(=O)[O-])CC1.[Lu+3]; F4(amGlyDOTALu) = lutetium complex of (S)-2,2',2''-(10-(2-((2-((4-(2-amino-2-carboxyethyl)benzyl)amino)-2-oxoethyl)amino)-2-oxoethyl)-1,4,7,10-tetraazacyclododecane-1,4,7-triyl)triacetic acid (Phe with 4-aminomethyl-Gly-DOTA-Lu), O=C([O-])CN1CCN(CC(=O)[O-])CCN(CC(=O)NCC(=O)NCc2ccc(C[C@H](N[*:1])C(=O)[*:2])cc2)CCN(CC(=O)[O-])CC1.[Lu+3]; F(4amPEG2NHDOTA-Lu)″ = lutetium (S)-2,2',2''-(10-(1-(4-(2-amino-2-carboxyethyl)phenyl)-3,12-dioxo-5,8-dioxa-2,11-diazatridecan-13-yl)-1,4,7,10-tetraazacyclododecane-1,4,7-triyl)triacetic acid, O=C([O-])CN1CCN(CC(=O)[O-])CCN(CC(=O)NCCOCCOCC(=O)NCc2ccc(C[C@H](N[*:1])C(=O)[*:2])cc2)CCN(CC(=O)[O-])CC1.[Lu+3]; F4(METRIAZOLYLMENHDOTA-Lu) = Phe with 4-(methyl-triazolyl-methyl-NH-DOTA), Lu complex; DOTA(Lu) = O=C1CN2CCN3CCN(CC(=O)*)CCN(CC2)CC(=O)[O][Lu]([O]1)[O]C(=O)C3; X4 = 4‑(carboxymethyl)piperazine‑1‑carbonyl, O=C(O)CN1CCN(C(=O)*)CC1; hS(Pr) = O-propyl-L-homoserine, CCCOCC[C@H](N[*:1])C(=O)[*:2]; NMeF = CN[C@@H](Cc1ccccc1)C(=O)O; Ahp(2) = CCCCC[C@H](N)C(=O)O
// scale note: pIC50 = -log10(conc_M); give the bare number

# example entries with known answers
SUBSTANCE	pIC50
Gly-Gly-NMePhe-F4(amGlyDOTALu)-Ahp-Trp-Gly-Tyr-Asp-D-Pro (cyclo(GG[NMeF][F4(amGlyDOTALu)][Ahp(2)]WGYD[dP]); also: Lu complex) [Example C9]	11.00
Gly-Gly-NMePhe-F4(METRIAZOLYLMENHDOTA-Lu)-Ahp-Trp-Gly-Tyr-Asp-D-Pro (cyclo(GG[NMeF][F4(METRIAZOLYLMENHDOTA-Lu)][Ahp(2)]WGYD[dP]); also: Lu complex) [Example C14]	11.05
Lys(DOTA-Lu)-Gly-NMePhe-Tyr-Ahp-Trp-Gly-Tyr-Asp-D-Pro (cyclo(K(DOTA(Lu))G[NMeF]Y[Ahp(2)]WGYD[dP]); also: Lu complex) [Example C22]	9.37

Supply measured pIC50 of Gly-Gly-NMePhe-F4(amMeBAlaDOTALu)-Ahp-Trp-Gly-Tyr-Asp-D-Pro (cyclo(GG[NMeF][F4(amMeBAlaDOTALu)][Ahp(2)]WGYD[dP]); also: Lu complex) [Example C11] in your reply.
11.05

Give reported pIC50 value for Pro-Gly-NMePhe-F(4amPEG2NHDOTA-Lu)-hS(Pr)-Trp-Gly-K(COpipzaa)-Asp-D-Pro (cyclo(PG[NMeF][F(4amPEG2NHDOTA-Lu)″][hS(Pr)]WGK(X4)D[dP])) [Example C20]
10.80

====

target: human FAP (Homo sapiens, UniProt Q12884)
Structures can show the parent of a compound that is named as a salt. Non-standard residues stand in square brackets, D forms with d. Residues, ends and D or L forms follow the SMILES beside them. *: point of attachment. DOTA = O=C(O)CN1CCN(CC(=O)O)CCN(CC(=O)*)CCN(CC(=O)O)CC1; AEF = NCCOc1ccc(C[C@H](N)C(=O)O)cc1; NMeF = CN[C@@H](Cc1ccccc1)C(=O)O; αMeD = C[C@](N)(CC(=O)O)C(=O)O; d(αMeP) = C[C@]1(C(=O)O)CCCN1; Ahp(2) = CCCCC[C@H](N)C(=O)O
PROPERTY_MEASURED: pIC50
Please keep in mind that pIC50 is minus log10 of the molar concentration; only the number is needed.

COMPOUND	pIC50
CCCCC[C@@H]1NC(=O)[C@H](Cc2ccc(O)cc2)NC(=O)[C@H](Cc2ccccc2)NC(=O)CNC(=O)[C@H](CCCCN)NC(=O)[C@H]2CCCN2C(=O)[C@H](CC(=O)O)NC(=O)[C@H](Cc2ccc(O)cc2)NC(=O)CNC(=O)[C@H](Cc2c[nH]c3ccccc23)NC1=O [Example A22, TFA salt] (cyclo([Ahp(2)]WGYD[dP]KGFY))	9.48
CCCCC[C@@H]1NC(=O)[C@H](Cc2ccc(O)cc2)NC(=O)[C@H](Cc2ccccc2)N(C)C(=O)CNC(=O)CNC(=O)[C@@]2(C)CCCN2C(=O)[C@H](CC(=O)O)NC(=O)[C@H](Cc2ccc(O)cc2)NC(=O)CNC(=O)[C@H](Cc2c[nH]c3ccccc23)NC1=O [Example A70] (cyclo([Ahp(2)]WGYD[d(αMeP)]GG[NMeF]Y))	10.44
CCCCC[C@@H]1NC(=O)[C@H](Cc2ccc(O)cc2)NC(=O)[C@H](Cc2ccccc2)N(C)C(=O)CNC(=O)CNC(=O)[C@H]2CCCN2C(=O)[C@](C)(CC(=O)O)NC(=O)[C@H](Cc2ccc(O)cc2)NC(=O)CNC(=O)[C@H](Cc2c[nH]c3ccccc23)NC1=O [Example A72] (cyclo([Ahp(2)]WGY[αMeD][dP]GG[NMeF]Y))	6.63

--- query ---
For human FAP (Homo sapiens, UniProt Q12884), give the measured pIC50 of the entry CCCCC[C@@H]1NC(=O)[C@H](Cc2ccc(OCCNC(=O)CN3CCN(CC(=O)O)CCN(CC(=O)O)CCN(CC(=O)O)CC3)cc2)NC(=O)[C@H](Cc2ccccc2)N(C)C(=O)CNC(=O)CNC(=O)[C@H]2CCCN2C(=O)[C@H](CC(=O)O)NC(=O)[C@H](Cc2ccc(O)cc2)NC(=O)CNC(=O)[C@H](Cc2c[nH]c3ccccc23)NC1=O [Example B23, TFA salt] (cyclo([AEF](DOTA)[Ahp(2)]WGYD[dP]GG[NMeF]))
10.92

All values here come from patent US20250090699A1.
